Reference source: patent US20230181562A1

- target: non-mutated CFTR (Homo sapiens, UniProt P13569)
- Construct: host or cells: human epithelial cells (called glandular / lacrimal gland epithelial cells) grown on Snapwell filters
- Sequence (P13569 whole entry, change not shown): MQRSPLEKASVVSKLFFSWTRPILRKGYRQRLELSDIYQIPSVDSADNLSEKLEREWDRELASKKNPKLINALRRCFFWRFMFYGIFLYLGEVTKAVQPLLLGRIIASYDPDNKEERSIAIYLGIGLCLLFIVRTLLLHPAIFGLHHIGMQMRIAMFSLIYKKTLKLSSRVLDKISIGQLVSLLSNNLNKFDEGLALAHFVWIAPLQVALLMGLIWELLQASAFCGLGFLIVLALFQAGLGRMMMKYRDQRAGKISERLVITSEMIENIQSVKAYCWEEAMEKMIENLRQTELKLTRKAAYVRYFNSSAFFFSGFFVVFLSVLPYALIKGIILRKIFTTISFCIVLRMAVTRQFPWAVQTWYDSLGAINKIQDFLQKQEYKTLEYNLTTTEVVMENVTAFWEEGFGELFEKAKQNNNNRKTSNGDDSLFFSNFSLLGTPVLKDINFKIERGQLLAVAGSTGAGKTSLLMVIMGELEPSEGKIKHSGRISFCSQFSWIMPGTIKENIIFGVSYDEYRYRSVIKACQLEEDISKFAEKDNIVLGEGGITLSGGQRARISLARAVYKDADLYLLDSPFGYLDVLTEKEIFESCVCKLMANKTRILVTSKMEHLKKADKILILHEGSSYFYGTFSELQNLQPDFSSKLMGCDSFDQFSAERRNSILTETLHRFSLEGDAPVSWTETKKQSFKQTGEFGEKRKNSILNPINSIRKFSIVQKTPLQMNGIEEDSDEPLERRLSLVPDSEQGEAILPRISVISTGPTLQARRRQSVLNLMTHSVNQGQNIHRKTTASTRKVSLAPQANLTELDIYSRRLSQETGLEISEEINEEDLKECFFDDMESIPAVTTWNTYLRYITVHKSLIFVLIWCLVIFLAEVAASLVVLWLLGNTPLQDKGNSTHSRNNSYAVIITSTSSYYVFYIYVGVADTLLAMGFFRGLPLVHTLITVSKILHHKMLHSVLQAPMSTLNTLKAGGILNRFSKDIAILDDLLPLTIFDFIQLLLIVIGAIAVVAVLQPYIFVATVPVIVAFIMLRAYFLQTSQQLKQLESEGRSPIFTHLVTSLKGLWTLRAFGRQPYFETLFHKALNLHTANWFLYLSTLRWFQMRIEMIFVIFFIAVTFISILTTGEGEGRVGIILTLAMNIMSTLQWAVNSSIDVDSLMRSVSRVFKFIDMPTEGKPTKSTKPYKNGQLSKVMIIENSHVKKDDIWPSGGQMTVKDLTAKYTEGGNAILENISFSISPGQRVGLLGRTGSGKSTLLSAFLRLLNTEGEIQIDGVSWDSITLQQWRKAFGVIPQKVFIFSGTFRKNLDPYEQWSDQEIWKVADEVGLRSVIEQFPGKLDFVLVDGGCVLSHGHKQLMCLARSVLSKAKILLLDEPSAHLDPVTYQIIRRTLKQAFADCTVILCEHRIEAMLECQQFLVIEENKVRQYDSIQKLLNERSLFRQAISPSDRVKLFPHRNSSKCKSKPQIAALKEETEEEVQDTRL
- experiment.summary: Ussing chamber short-circuit current (ion transport via CFTR)
- Type: cell-based
- measurement.setup: basal pole; FIG. 3; read-out: EC50, basal pole
pEC50: −log10 of the molar value.
reported.property: pEC50

[
  {
    "molecule": "CCOc1c(N)c2c(c(OCC)c1OCC)C(C1c3c(cc4c(c3OC)OCO4)CCN1C)OC2=O (stereo not shown)",
    "target": "non-mutated CFTR (Homo sapiens, UniProt P13569)",
    "result.number": 5.31
  }
]
